- System: Bifidobacterium longum
- METHOD SUMMARY: Antimicrobial activity against 90 mins hydrogen peroxide-stressed Bifidobacterium longum ATCC 15707 after 18 hrs
- Format: functional
MEASURED PARAMETER: MIC (µg/mL)
I only need the number, in µg/mL, no unit after it.

Would you please look over these solved cases?
| COMPOUND | SCALE UNIT | MIC |
| --- | --- | --- |
| CC1(C)S[C@@H]2[C@H](NC(=O)[C@H](N)c3ccccc3)C(=O)N2[C@H]1C(=O)O | µg/mL | 0.98 |
| CN(C)[C@@H]1C(O)=C(C(N)=O)C(=O)[C@@]2(O)C(O)=C3C(=O)c4c(O)cccc4[C@@](C)(O)[C@H]3C[C@@H]12.Cl [TETRACYCLINE HYDROCHLORIDE] | µg/mL | 7.8 |

Then there is this compound:
Exercise: For "NC[C@H]1O[C@H](O[C@H]2[C@H](O)[C@@H](O[C@H]3O[C@H](CO)[C@@H](O)[C@H](N)[C@H]3O)[C@H](N)C[C@@H]2N)[C@H](O)[C@@H](O)[C@@H]1O" , what is its reported MIC?
Solution: 500

----------
- Test system: Bifidobacterium breve
- METHOD SUMMARY: Antimicrobial activity against 90 mins oxgall-stressed Bifidobacterium breve R0070 after 18 hrs
- Assay type: functional
Please assign no whenever MIC is at or above 60 µg/mL, and yes whenever it is below.

| MOLECULE | LABEL CLASS |
| --- | --- |
| CC1(C)S[C@@H]2[C@H](NC(=O)Cc3ccccc3)C(=O)N2[C@H]1C(=O)O | yes |
| O=C(N[C@H](CO)[C@H](O)c1ccc([N+](=O)[O-])cc1)C(Cl)Cl | yes |
| CN[C@H](CC(C)C)C(=O)N[C@H]1C(=O)N[C@@H](CC(N)=O)C(=O)N[C@H]2C(=O)N[C@H]3C(=O)N[C@H](C(=O)N[C@H](C(=O)O)c4cc(O)cc(O)c4-c4cc3ccc4O)[C@H](O)c3ccc(c(Cl)c3)Oc3cc2cc(c3O[C@@H]2O[C@H](CO)[C@@H](O)[C@H](O)[C@H]2O[C@H]2C[C@](C)(N)[C@H](O)[C@H](C)O2)Oc2ccc(cc2Cl)[C@H]1O | no |
| CN[C@@H]1[C@H](O[C@H]2[C@H](O[C@H]3[C@H](O)[C@@H](O)[C@H](N=C(N)N)[C@@H](O)[C@@H]3N=C(N)N)O[C@@H](C)[C@]2(O)C=O)O[C@@H](CO)[C@H](O)[C@H]1O | no |

Exercise: State whether 60 µg/mL exceeds MIC recorded for "NC[C@H]1O[C@H](O[C@H]2[C@H](O)[C@@H](O[C@H]3O[C@H](CO)[C@@H](O)[C@H](N)[C@H]3O)[C@H](N)C[C@@H]2N)[C@H](O)[C@@H](O)[C@@H]1O" .
Solution: no

Exercise: Here is the next molecule: "CC[C@H]1OC(=O)[C@H](C)[C@@H](O[C@H]2C[C@@](C)(OC)[C@@H](O)[C@H](C)O2)[C@H](C)[C@@H](O[C@@H]2O[C@H](C)C[C@H](N(C)C)[C@H]2O)[C@](C)(O)C[C@@H](C)C(=O)[C@H](C)[C@@H](O)[C@]1(C)O"
Solution: yes

Exercise: Here is the next molecule: "NC[C@@H]1O[C@H](O[C@H]2[C@@H](O)[C@H](O[C@@H]3[C@@H](O)[C@H](N)C[C@H](N)[C@H]3O[C@H]3O[C@H](CO)[C@@H](O)[C@H](O)[C@H]3N)O[C@@H]2CO)[C@H](N)[C@@H](O)[C@@H]1O"
Solution: no

Exercise: Here is the next molecule: "CC1(C)S[C@@H]2[C@H](NC(=O)[C@H](N)c3ccccc3)C(=O)N2[C@H]1C(=O)O"
Solution: yes

Exercise: Here is the next molecule: "NC[C@@H]1O[C@H](O[C@H]2[C@@H](O)[C@H](O[C@@H]3[C@@H](O)[C@H](N)C[C@H](N)[C@H]3O[C@H]3O[C@H](CN)[C@@H](O)[C@H](O)[C@H]3N)O[C@@H]2CO)[C@H](N)[C@@H](O)[C@@H]1O"
Solution: no

Exercise: Here is the next molecule: "Cc1onc(-c2ccccc2Cl)c1C(=O)N[C@@H]1C(=O)N2[C@@H]1SC(C)(C)[C@@H]2C(=O)O"
Solution: yes

Exercise: Here is the next molecule: CN(C)[C@@H]1C(O)=C(C(N)=O)C(=O)[C@@]2(O)C(O)=C3C(=O)c4c(O)cccc4[C@@](C)(O)[C@H]3C[C@@H]12.Cl [TETRACYCLINE HYDROCHLORIDE]
Solution: no

----------
Catalogue of MIC readings, one per entry.
- Test system: Bifidobacterium animalis
- METHOD SUMMARY: Antimicrobial activity against Bifidobacterium animalis ATCC 27536
- Format: functional
Could you kindly put the unit after your number?

| COMPOUND SMILES | MIC |
| --- | --- |
| O=C(N[C@H](CO)[C@H](O)c1ccc([N+](=O)[O-])cc1)C(Cl)Cl | 7.8 µg/mL |
| CC[C@H]1OC(=O)[C@H](C)[C@@H](O[C@H]2C[C@@](C)(OC)[C@@H](O)[C@H](C)O2)[C@H](C)[C@@H](O[C@@H]2O[C@H](C)C[C@H](N(C)C)[C@H]2O)[C@](C)(O)C[C@@H](C)C(=O)[C@H](C)[C@@H](O)[C@]1(C)O | 3.9 µg/mL |

Exercise: For "NC[C@@H]1O[C@H](O[C@H]2[C@@H](O)[C@H](O[C@@H]3[C@@H](O)[C@H](N)C[C@H](N)[C@H]3O[C@H]3O[C@H](CO)[C@@H](O)[C@H](O)[C@H]3N)O[C@@H]2CO)[C@H](N)[C@@H](O)[C@@H]1O" , what is its reported MIC?
Solution: 250 µg/mL

----------
Catalogue of MIC readings, one per entry.
- Tested on: Bifidobacterium pseudolongum
- METHOD SUMMARY: Antimicrobial activity against Bifidobacterium pseudolongum ATCC 25562
- Type: functional
I only need the number, in µg/mL, no unit after it.

Would you please look over these solved cases?
| MOLECULE | MIC, µg/mL |
| --- | --- |
| CN(C)[C@@H]1C(O)=C(C(N)=O)C(=O)[C@@]2(O)C(O)=C3C(=O)c4c(O)cccc4[C@@](C)(O)[C@H]3C[C@@H]12.Cl [TETRACYCLINE HYDROCHLORIDE] | 15.6 |
| NC[C@@H]1O[C@H](O[C@H]2[C@@H](O)[C@H](O[C@@H]3[C@@H](O)[C@H](N)C[C@H](N)[C@H]3O[C@H]3O[C@H](CO)[C@@H](O)[C@H](O)[C@H]3N)O[C@@H]2CO)[C@H](N)[C@@H](O)[C@@H]1O | 250 |
| CC1(C)S[C@@H]2[C@H](NC(=O)Cc3ccccc3)C(=O)N2[C@H]1C(=O)O | 0.98 |

Then there is this molecule:
Exercise: Lab note: need MIC for "O=C(N[C@H](CO)[C@H](O)c1ccc([N+](=O)[O-])cc1)C(Cl)Cl" on Bifidobacterium pseudolongum, anyone have it?
Solution: 7.8

----------
- Tested on: Bifidobacterium bifidum
- METHOD SUMMARY: Antimicrobial activity against Bifidobacterium bifidum ATCC 15696
- Format: functional
MEASURED PARAMETER: MIC (µg/mL)
I only need the number, in µg/mL, no unit after it.

Would you please look over these solved cases?
| MOLECULE | EXPERIMENTAL SYSTEM | MIC [µg/mL] |
| --- | --- | --- |
| CC1(C)S[C@@H]2[C@H](NC(=O)Cc3ccccc3)C(=O)N2[C@H]1C(=O)O | Bifidobacterium bifidum | 0.98 |
| NC[C@@H]1O[C@H](O[C@H]2[C@@H](O)[C@H](O[C@@H]3[C@@H](O)[C@H](N)C[C@H](N)[C@H]3O[C@H]3O[C@H](CO)[C@@H](O)[C@H](O)[C@H]3N)O[C@@H]2CO)[C@H](N)[C@@H](O)[C@@H]1O | Bifidobacterium bifidum | 250 |
| CN(C)[C@@H]1C(O)=C(C(N)=O)C(=O)[C@@]2(O)C(O)=C3C(=O)c4c(O)cccc4[C@@](C)(O)[C@H]3C[C@@H]12.Cl [TETRACYCLINE HYDROCHLORIDE] | Bifidobacterium bifidum | 31.2 |

Exercise: For "Cc1onc(-c2ccccc2Cl)c1C(=O)N[C@@H]1C(=O)N2[C@@H]1SC(C)(C)[C@@H]2C(=O)O" , what is its reported MIC?
Solution: 7.8

Exercise: Here is the next molecule: "CN[C@@H]1[C@H](O[C@H]2[C@H](O[C@H]3[C@H](O)[C@@H](O)[C@H](N=C(N)N)[C@@H](O)[C@@H]3N=C(N)N)O[C@@H](C)[C@]2(O)C=O)O[C@@H](CO)[C@H](O)[C@H]1O"
Solution: 250

Reference source: ChEMBL document CHEMBL1142148
